Molecular target: Avi-KRAS WT (1-169) GppNHp/RAF1 RBD-3xFLAG (52-151) (Homo sapiens, UniProt P01116)
Construct: Avi-KRAS WT (1-169)
Sequence (P01116 1-169 isoform P01116-2): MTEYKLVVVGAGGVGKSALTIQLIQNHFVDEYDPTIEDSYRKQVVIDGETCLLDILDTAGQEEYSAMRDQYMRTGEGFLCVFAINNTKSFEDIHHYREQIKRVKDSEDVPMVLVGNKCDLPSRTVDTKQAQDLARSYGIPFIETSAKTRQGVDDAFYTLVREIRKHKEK
Test: Raf1-KRAS WT-GppNHP disruption HTRF assay (Biological Example 1)
Format: binding
Conditions: KRAS WT-GppNHp/RAF1 RBD HTRF
Documented IC50 across a set of compounds

compound	IC50
C[C@H]1C[C@H](N(c2nc(OC[C@@]34CCCN3C[C@H](F)C4)nc3c(F)c(-c4ccc(F)c5sc(N)c(C#N)c45)c(C(F)(F)F)cc23)C2CC2)CN1C(=O)C1CC1	100 to 1000 nM

What value of measured IC50 is listed for `CC(=O)N1C[C@H]2CCCN(c3nc(OC[C@@]45CCCN4C[C@H](F)C5)nc4c(F)c(-c5ccc(F)c6sc(N)c(C#N)c56)c(C(F)(F)F)cc34)[C@H]2C1` ?
1000 to 10000 nM

What measured IC50 goes with CCN(c1nc(OC[C@@]23CCCN2C[C@H](F)C3)nc2c(F)c(-c3ccc(F)c4sc(N)c(C#N)c34)c(C(F)(F)F)cc12)[C@H]1C[C@H]2CN(C)C(=O)N2C1 (atropisomer, axis not shown; (aS)) ?
< 100 nM

Report IC50 for `CCN(c1nc(OC[C@@]23CCCN2C[C@H](F)C3)nc2c(F)c(-c3ccc(F)c4sc(N)c(C#N)c34)c(C(F)(F)F)cc12)[C@@H]1CCN(C(C)=O)[C@@H]1C` please.
100 to 1000 nM

Requested field: IC50. Item: `CCN(c1nc(OC[C@@]23CCCN2C[C@H](F)C3)nc2c(F)c(-c3ccc(F)c4sc(N)c(C#N)c34)c(Cl)cc12)[C@@H]1CCN(C(=O)C2CC2)[C@@H]1C`
100 to 1000 nM
